Hello, the source for this data is ChEMBL document CHEMBL4251567, in case you need it.

target: Histone deacetylase; experiment: Inhibition of HDAC in human HeLa-S3 cell lysates preincubated for 15 mins followed by HDAC-Glo substrate addition measured after 35 mins by fluorimetric method; format: protein assay
reported_metric: IC50 (µM)

Example cases with answers are listed next.
Noted for CCCCCCC(CCCC(=O)Nc1ccccc1)CCC(=O)NO (stereo not given) : its IC50 reads 60

Looking up CCC(CCCC(=O)Nc1ccccc1)CCC(=O)NO (stereo not given) , I see its IC50 listed as 14

I. CC(CCCC(=O)Nc1ccccc1)CCC(=O)NO (stereo not given)
II. O=C(CCC(CCCC(=O)Nc1ccccc1)Cc1ccccc1)NO (racemic)
IN: Endpoint returns the identifier whose IC50 is numerically larger, either I or II . Kindly give the label for the entry you pick.
OUT: II
(II: 62 µM, I: 3.3 µM)

###

biological target: Histone deacetylase 1 (Homo sapiens) (UniProt Q13547); experiment: Inhibition of HDAC1 in human HeLa-S3 cell lysates assessed as remaining activity at 8 x 10^-5 M preincubated for 15 mins followed by HDAC-Glo substrate addition measured after 30 to 40 mins by […] relative to control
Sequence (Q13547 whole entry): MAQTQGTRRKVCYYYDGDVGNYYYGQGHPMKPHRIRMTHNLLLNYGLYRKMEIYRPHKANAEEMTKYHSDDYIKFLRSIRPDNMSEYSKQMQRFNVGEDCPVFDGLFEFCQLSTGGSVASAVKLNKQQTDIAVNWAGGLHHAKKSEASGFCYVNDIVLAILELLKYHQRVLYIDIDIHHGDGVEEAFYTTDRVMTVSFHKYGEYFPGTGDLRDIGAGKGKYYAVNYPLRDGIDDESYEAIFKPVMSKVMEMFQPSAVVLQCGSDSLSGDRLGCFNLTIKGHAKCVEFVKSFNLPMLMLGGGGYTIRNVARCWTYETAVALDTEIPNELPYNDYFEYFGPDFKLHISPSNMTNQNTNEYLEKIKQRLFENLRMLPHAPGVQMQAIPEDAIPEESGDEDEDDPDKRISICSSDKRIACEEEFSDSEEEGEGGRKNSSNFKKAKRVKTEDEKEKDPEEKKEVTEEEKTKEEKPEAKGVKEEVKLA
reported_metric: Activity (%)

// Activity lookup, compound = O=C(CC[C@@H](CCCC(=O)Nc1ccccc1)Cc1ccccc1)NO , result: 24

In plain terms, O=C(CCC(CCCC(=O)Nc1ccccc1)Cc1ccccc1)NO (racemic) has a documented Activity of 27

The compound identified as O=C(CC[C@H](CCCC(=O)Nc1ccccc1)Cc1ccccc1)NO registered its Activity at 32

Short answer for CCCCCCC(CCCC(=O)Nc1ccccc1)CCC(=O)NO (centres undefined) : Activity was 26

###

target: Histone deacetylase 1 (Homo sapiens) (UniProt Q13547); assay: Inhibition of HDAC1 in human HeLa-S3 cell lysates assessed as remaining activity at 1 x 10^-5 M preincubated for 15 mins followed by HDAC-Glo substrate addition measured after 30 to 40 mins by fluorimetric method relative to control
reported_metric: Activity (%)

Activity recorded for this molecule, O=C(CCC(CCCC(=O)Nc1ccccc1)Cc1ccccc1)NO (racemic) , is 75

Per the record, O=C(CC[C@@H](CCCC(=O)Nc1ccccc1)Cc1ccccc1)NO has Activity of 72

Given item CCCCCCC(CCCC(=O)Nc1ccccc1)CCC(=O)NO (centres undefined) , the value recorded as its Activity is 83

// recorded Activity for O=C(CC[C@H](CCCC(=O)Nc1ccccc1)Cc1ccccc1)NO : 84

###

target: Histone deacetylase 1 (Homo sapiens); assay: Inhibition of HDAC1 in human HeLa-S3 cell lysates assessed as remaining activity at 2 x 10^-5 M preincubated for 15 mins followed by HDAC-Glo substrate addition measured after 30 to 40 mins by […] relative to control
reported_metric: Activity (%)

Record O=C(CCC(CCCC(=O)Nc1ccccc1)Cc1ccccc1)NO (racemic) , field Activity: 58

Measured Activity, O=C(CC[C@@H](CCCC(=O)Nc1ccccc1)Cc1ccccc1)NO : 53

Memo: O=C(CC[C@H](CCCC(=O)Nc1ccccc1)Cc1ccccc1)NO , reported Activity: 68

So for CCCCCCC(CCCC(=O)Nc1ccccc1)CCC(=O)NO (centres undefined) , the logged Activity turned out to be 67

###

biological target: Histone deacetylase 2 (Homo sapiens); assay: Inhibition of HDAC2 in human HeLa-S3 cell lysates assessed as remaining activity at 4 x 10^-5 M preincubated for 15 mins followed by HDAC-Glo substrate addition measured after 30 to 40 mins by […] relative to control
reported_metric: Activity (%)

Data point: CCCCCCC(CCCC(=O)Nc1ccccc1)CCC(=O)NO (centres undefined) ; Activity = 46

Short answer for O=C(CC[C@H](CCCC(=O)Nc1ccccc1)Cc1ccccc1)NO : Activity was 56

Briefly, Activity measured for O=C(CCC(CCCC(=O)Nc1ccccc1)Cc1ccccc1)NO (racemic) : 47

Summary for this molecule, O=C(CC[C@@H](CCCC(=O)Nc1ccccc1)Cc1ccccc1)NO : Activity is 43

###

biological target: Histone deacetylase 2 (Homo sapiens) (UniProt Q92769); test: Inhibition of HDAC2 in human HeLa-S3 cell lysates assessed as remaining activity at 8 x 10^-5 M preincubated for 15 mins followed by HDAC-Glo substrate addition measured after 30 to 40 mins by […] relative to control
Sequence (Q92769 whole entry): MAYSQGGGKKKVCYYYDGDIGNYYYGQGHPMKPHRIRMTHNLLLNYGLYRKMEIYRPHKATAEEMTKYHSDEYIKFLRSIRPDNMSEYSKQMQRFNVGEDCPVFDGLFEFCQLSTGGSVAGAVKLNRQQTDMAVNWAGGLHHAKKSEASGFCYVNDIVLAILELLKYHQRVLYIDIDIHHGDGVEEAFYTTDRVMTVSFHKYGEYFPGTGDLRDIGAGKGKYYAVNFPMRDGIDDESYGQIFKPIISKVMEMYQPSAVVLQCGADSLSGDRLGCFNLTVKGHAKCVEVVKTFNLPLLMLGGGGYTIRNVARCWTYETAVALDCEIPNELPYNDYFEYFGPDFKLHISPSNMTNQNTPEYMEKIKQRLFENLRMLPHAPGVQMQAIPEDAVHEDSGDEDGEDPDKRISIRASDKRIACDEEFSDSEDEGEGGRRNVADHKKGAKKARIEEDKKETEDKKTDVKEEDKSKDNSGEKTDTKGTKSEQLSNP
reported_metric: Activity (%)

Quick note, Activity for O=C(CC[C@H](CCCC(=O)Nc1ccccc1)Cc1ccccc1)NO landed at 37

Activity measured on CCCCCCC(CCCC(=O)Nc1ccccc1)CCC(=O)NO (centres undefined) = 31

For this compound ( O=C(CCC(CCCC(=O)Nc1ccccc1)Cc1ccccc1)NO (racemic) ), measured Activity is 27

The compound listed as O=C(CC[C@@H](CCCC(=O)Nc1ccccc1)Cc1ccccc1)NO has a reported Activity of 29

###

target: UniProt Q92769; assay: Inhibition of HDAC2 in human HeLa-S3 cell lysates assessed as remaining activity at 2 x 10^-5 M preincubated for 15 mins followed by HDAC-Glo substrate addition measured after 30 to 40 mins by fluorimetric method relative to control
reported_metric: Activity (%)

Tested on UniProt Q92769, the item CCCCCCC(CCCC(=O)Nc1ccccc1)CCC(=O)NO (centres undefined) showed Activity equal to 73

Readout Activity for O=C(CC[C@@H](CCCC(=O)Nc1ccccc1)Cc1ccccc1)NO , test system UniProt Q92769, was 71

Activity for UniProt Q92769 with input O=C(CC[C@H](CCCC(=O)Nc1ccccc1)Cc1ccccc1)NO equals 74

The compound O=C(CCC(CCCC(=O)Nc1ccccc1)Cc1ccccc1)NO (racemic) , tested on UniProt Q92769, showed Activity of 60

###

target: UniProt O15379; assay: Inhibition of HDAC3 in human HeLa-S3 cell lysates assessed as remaining activity at 2 x 10^-5 M preincubated for 15 mins followed by HDAC-Glo substrate addition measured after 30 to 40 mins by […] relative to control
reported_metric: Activity (%)

// recorded Activity for O=C(CC[C@@H](CCCC(=O)Nc1ccccc1)Cc1ccccc1)NO : 54

Memo: O=C(CCC(CCCC(=O)Nc1ccccc1)Cc1ccccc1)NO (racemic) , reported Activity: 63

Entry CCCCCCC(CCCC(=O)Nc1ccccc1)CCC(=O)NO (centres undefined) , Activity reported as 56

The value of Activity measured for the compound O=C(CC[C@H](CCCC(=O)Nc1ccccc1)Cc1ccccc1)NO turned out to be 67

###

biological target: Histone deacetylase 3 (Homo sapiens) (UniProt O15379); assay: Inhibition of HDAC3 in human HeLa-S3 cell lysates assessed as remaining activity at 4 x 10^-5 M preincubated for 15 mins followed by HDAC-Glo substrate addition measured after 30 to 40 mins by […] relative to control
Sequence (O15379 whole entry): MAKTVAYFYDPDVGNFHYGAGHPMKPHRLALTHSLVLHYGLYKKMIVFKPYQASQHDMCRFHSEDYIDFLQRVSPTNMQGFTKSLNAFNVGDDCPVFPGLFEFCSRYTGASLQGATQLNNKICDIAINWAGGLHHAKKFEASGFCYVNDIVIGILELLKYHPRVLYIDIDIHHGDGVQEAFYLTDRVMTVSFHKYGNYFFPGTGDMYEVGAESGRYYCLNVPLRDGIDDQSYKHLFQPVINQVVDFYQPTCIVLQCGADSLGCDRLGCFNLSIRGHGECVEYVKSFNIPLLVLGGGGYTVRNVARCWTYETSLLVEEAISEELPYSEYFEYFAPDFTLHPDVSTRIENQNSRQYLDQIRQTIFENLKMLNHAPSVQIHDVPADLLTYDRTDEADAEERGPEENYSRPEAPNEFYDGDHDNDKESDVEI
reported_metric: Activity (%)

Considering O=C(CC[C@@H](CCCC(=O)Nc1ccccc1)Cc1ccccc1)NO , its Activity with Histone deacetylase 3 (Homo sapiens) (UniProt O15379) was recorded as 39

GET /values?item= O=C(CCC(CCCC(=O)Nc1ccccc1)Cc1ccccc1)NO (racemic) &system= Histone deacetylase 3 (Homo sapiens) (UniProt O15379) returns Activity: 55

Test item CCCCCCC(CCCC(=O)Nc1ccccc1)CCC(=O)NO (centres undefined) ; Histone deacetylase 3 (Homo sapiens) (UniProt O15379); reported Activity was 42

Known value: Histone deacetylase 3 (Homo sapiens) (UniProt O15379) Activity of the compound O=C(CC[C@H](CCCC(=O)Nc1ccccc1)Cc1ccccc1)NO equals 48

###

test system: U-937; test: Cytotoxicity against human U937 cells assessed as decrease in cell viability after 44 hrs by MTT assay; type: functional, cell-based; details: u-937
reported_metric: EC50 (µM)
Quick note: give the figure in µM, leave out the unit.

Please fill in: EC50 reported for CCCCC(CCCC(=O)Nc1ccccc1)CCC(=O)NO (stereo unspecified) = 34

###

biological target: Histone deacetylase 3 (Homo sapiens) (UniProt O15379); assay: Inhibition of HDAC3 in human HeLa-S3 cell lysates assessed as remaining activity at 8 x 10^-5 M preincubated for 15 mins followed by HDAC-Glo substrate addition measured after 30 to 40 mins by […] relative to control
reported_metric: Activity (%)

According to the records, this molecule O=C(CC[C@@H](CCCC(=O)Nc1ccccc1)Cc1ccccc1)NO displays Activity of 25

Briefly, Activity measured for O=C(CCC(CCCC(=O)Nc1ccccc1)Cc1ccccc1)NO (racemic) : 33

Activity recorded for this molecule, CCCCCCC(CCCC(=O)Nc1ccccc1)CCC(=O)NO (centres undefined) , is 25

The molecule listed as O=C(CC[C@H](CCCC(=O)Nc1ccccc1)Cc1ccccc1)NO shows Activity equal to 33

###

target: Histone deacetylase 1 (Homo sapiens); assay: Inhibition of HDAC1 in human HeLa-S3 cell lysates assessed as remaining activity at 4 x 10^-5 M preincubated for 15 mins followed by HDAC-Glo substrate addition measured after 30 to 40 mins by […] relative to control
reported_metric: Activity (%)

Histone deacetylase 1 (Homo sapiens) Activity of O=C(CC[C@@H](CCCC(=O)Nc1ccccc1)Cc1ccccc1)NO is 38

The observed Activity for CCCCCCC(CCCC(=O)Nc1ccccc1)CCC(=O)NO (centres undefined) when tested with Histone deacetylase 1 (Homo sapiens) stands at 46

With Histone deacetylase 1 (Homo sapiens) as the test system, O=C(CC[C@H](CCCC(=O)Nc1ccccc1)Cc1ccccc1)NO showed Activity of 50

The value of Activity recorded for O=C(CCC(CCCC(=O)Nc1ccccc1)Cc1ccccc1)NO (racemic) when tested on Histone deacetylase 1 (Homo sapiens) reads 44
